Entry source: the RNAGym collection of RNA variant scans (doi:10.1002/anie.201605470)

B1: Osa-1-4 twister ribozyme (parent)
chain: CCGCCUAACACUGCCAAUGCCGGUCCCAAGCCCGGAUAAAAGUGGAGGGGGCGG

- Variants of: B1
- procedure summary: self-cleavage, relative activity (ratio to wild type); higher = more cleavage; co-transcriptional
Give self-cleavage for every item shown.
Give bare numbers.

Observe how each entry below is paired with its result.
> print(dat)
   variant.spec  numeric.result
1     G47U G48A            0.04
2     U18A U24C            0.37

Dear colleague, could you send me self-cleavage for each of the items below? Thanks.
1. C25A G42C
2. A10G G51U
3. A10C U18C
4. A16C A40C

Marked response:
0.04
0.18
0.07
0.07
